pIC50 reference
# Tested Target: various mutants of kinase EGFR (BaF3 cell lines stably transfected with kinase) (Homo sapiens, UniProt P00533, T790M/C797S, form not given)
# Construct: other: BaF3 cells stably transfected with EGFR Δ19Del/T790M/C797S; MTS, 48; other: BaF3 cell line stably transfected with EGFR Δ19Del/T790M/C7
# Sequence (P00533 with tags, fused parts or gaps DEL746-750/T790M/C797S, form open): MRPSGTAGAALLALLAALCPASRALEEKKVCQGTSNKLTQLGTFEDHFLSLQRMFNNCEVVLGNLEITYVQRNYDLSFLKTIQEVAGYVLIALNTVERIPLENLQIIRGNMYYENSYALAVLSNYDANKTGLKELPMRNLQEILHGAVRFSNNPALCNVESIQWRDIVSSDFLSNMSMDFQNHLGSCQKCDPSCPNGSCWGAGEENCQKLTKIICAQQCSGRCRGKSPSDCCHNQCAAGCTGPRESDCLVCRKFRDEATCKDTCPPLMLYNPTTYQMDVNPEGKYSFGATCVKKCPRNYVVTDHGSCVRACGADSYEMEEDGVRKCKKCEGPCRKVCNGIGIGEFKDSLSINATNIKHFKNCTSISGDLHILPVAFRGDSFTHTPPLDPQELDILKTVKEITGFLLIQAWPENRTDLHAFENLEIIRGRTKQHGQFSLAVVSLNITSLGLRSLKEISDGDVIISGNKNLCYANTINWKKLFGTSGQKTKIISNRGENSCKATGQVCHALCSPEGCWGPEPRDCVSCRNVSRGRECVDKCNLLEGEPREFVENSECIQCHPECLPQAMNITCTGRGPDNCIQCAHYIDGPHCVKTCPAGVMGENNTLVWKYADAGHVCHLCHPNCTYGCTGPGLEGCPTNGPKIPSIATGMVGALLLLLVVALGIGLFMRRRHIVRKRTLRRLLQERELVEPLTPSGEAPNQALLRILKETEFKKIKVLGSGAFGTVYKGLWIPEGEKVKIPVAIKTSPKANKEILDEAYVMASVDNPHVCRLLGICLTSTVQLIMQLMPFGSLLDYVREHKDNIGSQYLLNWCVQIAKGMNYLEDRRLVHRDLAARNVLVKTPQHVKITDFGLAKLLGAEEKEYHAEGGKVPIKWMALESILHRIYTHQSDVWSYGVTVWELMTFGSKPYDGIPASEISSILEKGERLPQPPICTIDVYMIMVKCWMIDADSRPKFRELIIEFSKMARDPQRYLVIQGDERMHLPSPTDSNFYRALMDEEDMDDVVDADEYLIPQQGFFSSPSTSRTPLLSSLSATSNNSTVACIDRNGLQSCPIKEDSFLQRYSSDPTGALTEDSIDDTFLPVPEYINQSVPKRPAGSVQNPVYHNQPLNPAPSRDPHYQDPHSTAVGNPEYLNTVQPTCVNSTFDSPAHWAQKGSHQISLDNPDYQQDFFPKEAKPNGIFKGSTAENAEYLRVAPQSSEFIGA
# Test: Growth inhibitory activity of compounds on BaF3 cell lines stably transfected with kinase (MTS, 48 h)
# Format: cell-based
# Condition Description: BaF3 cells stably transfected with EGFR Δ19Del/T790M/C797S, read-out: IC50, growth inhibition, Δ19Del/T790M/C797S
# Method: The activity of compounds against various mutants of kinase EGFR was evaluated by their effect of inhibiting growth of BaF3 cell lines stably transfected with kinase. The specific test method was given as follows: […] 3) Compound test: cells were incubated into a 96-well culture plate, the volume of cytosol was 90 µL, and then 10 µL of the compound at each gradient concentration was added. […] OD values at 490 nm were measured by a microplate reader (VARIOSKAN FLASH, Thermo). […]
pIC50: −log10 of the molar value.

# example entries with known answers
- Compound: "COc1ccc(CN2CCN(C)CC2)cc1Nc1ncc(Br)c(Nc2ccc3nccnc3c2N(C)S(C)(=O)=O)n1"
  pIC50: "5.60 to 6.30"
- Compound: "COc1cc(N2CCC(N(C)C)CC2)c(C)cc1Nc1ncc(C(F)(F)F)c(Nc2ccc3nccnc3c2N(C)S(C)(=O)=O)n1"
  pIC50: "≥ 7.30"
- Compound: "CCc1cc(Nc2ncc(Cl)c(Nc3ccc4nccnc4c3N(C)S(=O)(=O)CC)n2)c(OC)cc1N1CCC(N2CCN(C)CC2)CC1"
  pIC50: "≥ 7.30"
- Compound: "CC1CN(C)CCc2ccc(Nc3ncc(Br)c(Nc4ccc5nccnc5c4N(C)S(C)(=O)=O)n3)cc21 (centres unmarked)"
  pIC50: "≥ 7.30"
- Compound: "CCc1cc(Nc2ncc(Cl)c(Nc3ccc4nccnc4c3N(C)S(C)(=O)=O)n2)c(OC)cc1N1CCN(C)CC1"
  pIC50: "≥ 7.30"
- Compound: "COc1cc(N2CCN(C)CC2)c(C)cc1Nc1ncc([N+](=O)[O-])c(Nc2ccc3nccnc3c2N(C)S(C)(=O)=O)n1"
  pIC50: "≥ 7.30"
- Compound: "COc1cc(N2CCC(N3CCN(C)CC3)CC2)c(C)cc1Nc1ncc(Br)c(Nc2ccc3nccnc3c2N(C2CC2)S(C)(=O)=O)n1"
  pIC50: "≥ 7.30"
- Compound: "COc1cc(N2CCC(N3CCN(C)CC3)CC2)c(C)cc1Nc1ncc(Cl)c(Nc2ccc3nccnc3c2N(C)S(C)(=O)=O)n1"
  pIC50: "≥ 7.30"
- Compound: "CCN(c1c(Nc2nc(Nc3ccc(N4CCC(N5CCN(C)CC5)CC4)nc3OC)ncc2Br)ccc2nccnc12)S(C)(=O)=O"
  pIC50: "5.60 to 6.30"
- Compound: "CCc1cc(Nc2ncc(Br)c(Nc3ccc4nccnc4c3N(C)S(=O)(=O)C3CC3)n2)c(OC)cc1N1CCC(N2CCN(C)CC2)CC1"
  pIC50: "≥ 7.30"

Would you kindly share the measured pIC50 for CCc1cc(Nc2ncc(Cl)c(Nc3ccc4nccnc4c3N(C3CC3)S(C)(=O)=O)n2)c(OC)cc1N1CCC(N2CCN(C)CC2)CC1 ?
≥ 7.30

Try CCc1cc(Nc2ncc(Br)c(Nc3ccc4nccnc4c3N(C)S(C)(=O)=O)n2)c(OC)cc1N1CCC(N(C)C)C1 (centres unmarked) next.
≥ 7.30

Now try COc1cc(N2CCC(N(C)C)C2)c(C)cc1Nc1ncc(Br)c(Nc2ccc3nccnc3c2N(C)S(C)(=O)=O)n1 (centres unmarked) .
≥ 7.30

Queued: COc1cc(N2CCC(N3CCN(C)CC3)CC2)c(CC2CC2)cc1Nc1ncc(F)c(Nc2ccc3nccnc3c2N(C)S(C)(=O)=O)n1
≥ 7.30

Quick one: C=Cc1cc(Nc2ncc([N+](=O)[O-])c(Nc3ccc4nccnc4c3N(C)S(C)(=O)=O)n2)c(OC(F)(F)F)cc1N1CCC(N2CCN(C)CC2)CC1
6.30 to 7.30

Another compound to look at: COc1nc(N2CCC(N3CCN(C)CC3)CC2)ccc1Nc1ncc(Br)c(Nc2ccc3nccnc3c2N(C)S(=O)(=O)C2CC2)n1
6.30 to 7.30

Also CCN(c1c(Nc2nc(Nc3cc(C)c(N4CCC(N5CCN(C)CC5)CC4)nc3OC)ncc2Cl)ccc2nccnc12)S(C)(=O)=O ?
5.60 to 6.30

Can you handle COc1cc(N2CCC(N(C)C)CC2)c(C)cc1Nc1ncc(Br)c(Nc2ccc3nccnc3c2N(C)S(=O)(=O)C2CC2)n1 next?
≥ 7.30

Item: CCc1cc(Nc2ncc(Cl)c(Nc3ccc4nccnc4c3N(C)S(=O)(=O)CC)n2)c(OC)cc1N1CCC(N(C)C)CC1
≥ 7.30

Then C=Cc1cc(Nc2ncc(Br)c(Nc3ccc4nccnc4c3N(CC)S(C)(=O)=O)n2)c(OC(F)(F)F)cc1N1CCC(N2CCN(C)CC2)CC1 ?
≥ 7.30
